# test.target: T1, human PD-L1 ECD-His (human, UniProt Q9NZQ7 19-238)
# T1 construct: extracellular domain; Analyte in all SPR and BLI runs; also called hPD-L1_ECD-His; hPD-L1 ECD-His; not shown: His tag
# T1 sequence (Q9NZQ7 19-238): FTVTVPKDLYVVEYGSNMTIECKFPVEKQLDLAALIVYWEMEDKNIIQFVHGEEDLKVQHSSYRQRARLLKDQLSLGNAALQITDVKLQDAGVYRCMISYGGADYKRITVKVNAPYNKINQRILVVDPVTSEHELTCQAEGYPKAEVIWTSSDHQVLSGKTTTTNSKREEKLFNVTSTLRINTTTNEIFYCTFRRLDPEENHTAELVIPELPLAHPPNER
# experiment.description: BLI, ratio of KD to ref-1
measure.name: Improvement over ref-1 (fold)
Record the value in fold, omitting the unit from your answer.

Reported Improvement over ref-1 for PL3#7-54 mtIgG1 (antibody, V domains shown, Antibody was biotinylated (NHS-PEG4-biotin, sites not specified) for the Octet assay of Table 11., N297A mutant human IgG1) VH: QVQLVQSGAEVKKPGSSVKVSCKASGGTFSSYPISWVRQAPGQGLEWMGRIIPILGIADYAQKFQGRVTITADKSTSTAYMELSSLRSEDTAVYYCARSRPGYAFGAFDIWGQGTLVTVSS VL: QSVVTQPPPVSGAPGQRVTISCTGSSSNIGQGYDVHWYQQLPGTAPKLLIYANSNRPSGVPDRFSGSKSGTSASLAITGLQAEDEADYYCQTYDSSLSARVVFGGGTKLTVLG : what is it?
3.19
